For each record, write down the corresponding MIC.
Tested on: Enterococcus faecalis
Assay: Antimicrobial activity against Enterococcus faecalis ATCC 29212 after 16 hrs by disk susceptibility test
Type: functional
Quick note: number first, unit second.

// query MIC value for entry "O=C1NCCc2cc(Br)c(O)c(c2)Oc2ccc(cc2Br)CCNC(=O)/C(=N\O)Cc2cc(Br)c(O)c(c2)Oc2c(Br)cc(cc2Br)C/C1=N/O" 50 µg

Lookup "O=C1N/C=C/c2ccc(c(Br)c2)Oc2cc(cc(Br)c2O)CCNC(=O)/C(=N/O)Cc2cc(Br)c(c(Br)c2)Oc2cc(cc(Br)c2O)C/C1=N\O" 50 µg

Lookup "O=C(NCCc1ccc(O)c(Br)c1)/C(Cc1ccc(Oc2cc(C/C(=N/O)C(=O)NCCc3ccc(O)c(Br)c3)cc(Br)c2O)c(Br)c1)=N\O" 12.5 µg

Lookup "O=C(NCCc1ccc(O)c(Br)c1)[C@@H](O)Cc1ccc(O)c(Br)c1" 50 µg

Lookup "O=C1NCCc2cc(Br)c(O)c(c2)Oc2c(Br)cc(cc2Br)CCNC(=O)/C(=N/O)Cc2cc(Br)c(O)c(c2)Oc2c(Br)cc(cc2Br)C/C1=N\O" 12.5 µg

---

Tested on: Enterococcus faecalis
Test: Antimicrobial activity against Enterococcus faecalis ATCC 29212 after 16 hrs by disk susceptibility test
Type: functional
valueType: MIC
Quick note: number first, unit second.

// query MIC value for entry O=C(NCCc1ccc(O)c(Br)c1)/C(Cc1cc(Br)c(O)c(-c2cc(C/C(=N/O)C(=O)NCCc3ccc(O)c(Br)c3)cc(Br)c2O)c1)=N\O [BASTADIN 3] 3.12 µg

Lookup O=C(NCCc1ccc(O)c(Br)c1)/C(Cc1ccc(O)c(Br)c1)=N\O [HEMIBASTADIN 1] 50 µg

Lookup O=C(NCCc1ccc(O)c(Br)c1)/C(Cc1cc(Br)c(O)c(Oc2c(Br)cc(C/C(=N\O)C(=O)NCCc3ccc(O)c(Br)c3)cc2Br)c1)=N\O [BASTADIN 2] 50 µg

---

System: Staphylococcus aureus
Assay: Antimicrobial activity against Staphylococcus aureus ATCC 29213 after 16 hrs by disk susceptibility test
Format: functional
valueType: MIC (µg)
The reply should contain only the number, in µg.

// query MIC value for entry "O=C(NCCc1ccc(O)c(Br)c1)/C(Cc1cc(Br)c(O)c(-c2cc(C/C(=N/O)C(=O)NCCc3ccc(O)c(Br)c3)cc(Br)c2O)c1)=N\O" 1.56

Lookup "O=C(NCCc1ccc(O)c(Br)c1)/C(Cc1ccc(Oc2cc(C/C(=N/O)C(=O)NCCc3ccc(O)c(Br)c3)cc(Br)c2O)c(Br)c1)=N\O" 6.25

Lookup "O=C(NCCc1ccc(O)c(Br)c1)/C(Cc1cc(Br)c(O)c(Oc2c(Br)cc(C/C(=N\O)C(=O)NCCc3ccc(O)c(Br)c3)cc2Br)c1)=N\O" 6.25

Lookup "O=C1NCCc2cc(Br)c(O)c(c2)Oc2ccc(cc2Br)CCNC(=O)/C(=N\O)Cc2cc(Br)c(O)c(c2)Oc2c(Br)cc(cc2Br)C/C1=N/O" 12.5

Lookup "O=C1N/C=C/c2ccc(c(Br)c2)Oc2cc(cc(Br)c2O)CCNC(=O)/C(=N/O)Cc2cc(Br)c(c(Br)c2)Oc2cc(cc(Br)c2O)C/C1=N\O" 12.5

Lookup "COc1ccc(C/C(=N/O)C(=O)NCCc2ccc(O)c(Br)c2)cc1Br" 6.25

Lookup "O=C(NCCc1ccc(O)c(Br)c1)/C(Cc1cc(Br)c(O)c(Br)c1)=N\O" 3.12

Lookup "O=C1NCCc2cc(Br)c(O)c(c2)Oc2c(Br)cc(cc2Br)CCNC(=O)/C(=N/O)Cc2cc(Br)c(O)c(c2)Oc2c(Br)cc(cc2Br)C/C1=N\O" 6.25

Lookup "O=C(NCCc1ccc(O)c(Br)c1)/C(Cc1ccc(O)c(Br)c1)=N\O" 1.56

Where do the numbers come from? From ChEMBL document CHEMBL1158253.
